Experiment: exicorilant pharmacokinetics in Segment 2 patients
Format: in vivo, human
Conditions: male, human, in vivo, oral, Arm A, EXI 280 mg + ENZA 160 mg (8 PK observations), once daily with food; read-out: Cmax, geometric mean
From the text: Exicorilant pharmacokinetics observed in the patients in Segment 2 are illustrated in FIG. 4A (data are shown as geometric mean plus geometric standard deviation), and tabulated in TABLE 6.
Readout Name: Cmax (ng/mL)
Only the number, expressed in ng/mL, is required.

Q. Give the measured Cmax of Cn1ncc(S(=O)(=O)N2CC[C@H]3Cc4c(cnn4-c4ccc(F)cc4)C[C@]3(C(=O)c3cc(C(F)(F)F)ccn3)C2)n1 .
A. 19600

###

Target: human GR (Homo sapiens, UniProt P04150)
Assay: human GR functional assays
Format: cell-based
Readout Name: Ki

Q. Could you share which Ki value was measured for Cn1ncc(S(=O)(=O)N2CC[C@H]3Cc4c(cnn4-c4ccc(F)cc4)C[C@]3(C(=O)c3cc(C(F)(F)F)ccn3)C2)n1 ?
A. < 15 nM

###

Test: exicorilant pharmacokinetics in Segment 2 patients
Format: in vivo, human
Settings: male, human, in vivo, oral, Arm A, EXI 240 mg + ENZA 160 mg (15 PK observations), once daily with food; read-out: Cmax, geometric mean
Readout Name: Cmax
The number alone won't do; follow it with the unit.

Q. What Cmax value was documented for this compound, Cn1ncc(S(=O)(=O)N2CC[C@H]3Cc4c(cnn4-c4ccc(F)cc4)C[C@]3(C(=O)c3cc(C(F)(F)F)ccn3)C2)n1 ?
A. 17700 ng/mL

###

Test: exicorilant pharmacokinetics in Segment 2 patients
Format: in vivo, human
Conditions: male, human, in vivo, oral, Arm A, EXI 280 mg + ENZA 160 mg (8 PK observations), once daily with food; read-out: AUC0-24, geometric mean
Readout Name: AUC(0-t) (µg·h/mL)
Write down the numeric answer in µg·h/mL and omit the unit.

Q. Using the record for Cn1ncc(S(=O)(=O)N2CC[C@H]3Cc4c(cnn4-c4ccc(F)cc4)C[C@]3(C(=O)c3cc(C(F)(F)F)ccn3)C2)n1 [exicorilant] , report its AUC(0-t).
A. 401

###

Target: human GR (Homo sapiens, UniProt P04150)
Sequence (P04150 1-777): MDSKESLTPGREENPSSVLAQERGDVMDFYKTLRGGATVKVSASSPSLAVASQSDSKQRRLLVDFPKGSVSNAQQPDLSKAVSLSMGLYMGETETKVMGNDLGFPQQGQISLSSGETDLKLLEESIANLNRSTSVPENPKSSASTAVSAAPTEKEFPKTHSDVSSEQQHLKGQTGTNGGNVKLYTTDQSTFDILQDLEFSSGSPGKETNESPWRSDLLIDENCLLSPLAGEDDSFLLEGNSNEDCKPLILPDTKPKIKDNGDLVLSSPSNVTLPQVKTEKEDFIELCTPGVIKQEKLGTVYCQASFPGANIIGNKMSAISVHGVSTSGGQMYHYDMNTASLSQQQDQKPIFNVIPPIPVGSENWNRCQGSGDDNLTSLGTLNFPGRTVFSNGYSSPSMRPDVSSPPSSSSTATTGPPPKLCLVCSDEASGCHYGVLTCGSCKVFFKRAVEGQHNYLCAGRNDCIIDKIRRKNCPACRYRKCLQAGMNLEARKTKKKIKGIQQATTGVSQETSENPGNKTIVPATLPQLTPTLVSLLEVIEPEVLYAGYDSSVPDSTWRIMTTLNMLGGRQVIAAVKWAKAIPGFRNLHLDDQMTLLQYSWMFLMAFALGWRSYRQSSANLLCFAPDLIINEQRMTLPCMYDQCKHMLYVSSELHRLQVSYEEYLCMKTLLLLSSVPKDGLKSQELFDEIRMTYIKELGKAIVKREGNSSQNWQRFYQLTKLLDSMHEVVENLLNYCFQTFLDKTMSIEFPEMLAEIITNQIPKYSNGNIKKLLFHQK
Test: human GR binding
Readout Name: Ki

Q. For the record Cn1ncc(S(=O)(=O)N2CC[C@H]3Cc4c(cnn4-c4ccc(F)cc4)C[C@]3(C(=O)c3cc(C(F)(F)F)ccn3)C2)n1 , what value of Ki is listed for human GR (Homo sapiens, UniProt P04150)?
A. < 1 nM

###

Assay: exicorilant pharmacokinetics in Segment 2 patients
Format: in vivo, human
Conditions: male, human, in vivo, oral, Arm A, EXI 320 mg + ENZA 160 mg (8 PK observations), once daily with food; read-out: AUC0-24, geometric mean
Readout Name: AUC(0-t) (µg·h/mL)
A number alone suffices; assume µg·h/mL.

Q. Tell me the measured AUC(0-t) of Cn1ncc(S(=O)(=O)N2CC[C@H]3Cc4c(cnn4-c4ccc(F)cc4)C[C@]3(C(=O)c3cc(C(F)(F)F)ccn3)C2)n1 [exicorilant] , please.
A. 428

###

Experiment: exicorilant pharmacokinetics in Segment 2 patients
Type: in vivo, human
Settings: male, human, in vivo, oral, Arm A, EXI 320 mg + ENZA 160 mg (8 PK observations), once daily with food; read-out: Cmax, geometric mean
Readout Name: Cmax (ng/mL)
Give the quantity in ng/mL, number only.

Q. If you can, please state the reported Cmax value of Cn1ncc(S(=O)(=O)N2CC[C@H]3Cc4c(cnn4-c4ccc(F)cc4)C[C@]3(C(=O)c3cc(C(F)(F)F)ccn3)C2)n1 .
A. 19600

###

Experiment: exicorilant pharmacokinetics in Segment 2 patients
Format: in vivo, human
Conditions: male, human, in vivo, oral, Arm B, EXI 240 mg + ENZA 160 mg (14 PK observations, combined), once daily with food; read-out: Cmax, geometric mean
Readout Name: Cmax (ng/mL)
Give just the numeric value; ng/mL need not be written.

Q. Which measured Cmax value corresponds to Cn1ncc(S(=O)(=O)N2CC[C@H]3Cc4c(cnn4-c4ccc(F)cc4)C[C@]3(C(=O)c3cc(C(F)(F)F)ccn3)C2)n1 [exicorilant] ?
A. 17200
